TEST_SUMMARY: Oral bioavailability in fasted Cynomolgus monkey at 5 mg/kg by LC-MS/MS analysis
Format: ADME, organism-based, Macaca fascicularis
STUDY_CONDITIONS: in vivo

| STRUCTURE_AS_SMILES | UNIT_ABBREV | bioavailability |
| --- | --- | --- |
| O=c1ccn([C@@H]2O[C@](F)(CO)[C@@H](O)[C@H]2O)c(=O)[nH]1 | % | 62.9 |

* * *

TEST_SUMMARY: AUC (0 to t) in fasted Sprague-Dawley rat at 16.5 mg/kg, po by LC-MS/MS analysis
Type: ADME, organism-based
STUDY_CONDITIONS: in vivo
Below is a list of entries, each paired with its recorded AUC(0-t) value.

| STRUCTURE_AS_SMILES | AUC(0-t) |
| --- | --- |
| CC(C)C(=O)OCn1c(=O)ccn([C@@H]2O[C@](F)(COC(=O)C(C)C)[C@@H](O)[C@H]2O)c1=O | 20100 ng·h/mL |
| CCOC(=O)OCn1c(=O)ccn([C@@H]2O[C@](F)(COC(=O)C(C)C)[C@@H](O)[C@H]2O)c1=O | 15800 ng·h/mL |
